- ASSAY SYSTEM: BCAT2 (Homo sapiens, UniProt O15382)
- Sequence (O15382 28-392): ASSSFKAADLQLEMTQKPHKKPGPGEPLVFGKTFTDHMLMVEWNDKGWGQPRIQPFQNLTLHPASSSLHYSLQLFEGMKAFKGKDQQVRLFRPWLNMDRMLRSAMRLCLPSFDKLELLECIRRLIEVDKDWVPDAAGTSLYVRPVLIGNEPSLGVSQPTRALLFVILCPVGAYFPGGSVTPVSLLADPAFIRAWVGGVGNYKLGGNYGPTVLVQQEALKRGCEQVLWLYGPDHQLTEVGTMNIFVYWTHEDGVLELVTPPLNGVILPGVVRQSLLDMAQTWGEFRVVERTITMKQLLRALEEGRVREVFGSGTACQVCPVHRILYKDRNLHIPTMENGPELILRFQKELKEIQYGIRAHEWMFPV
- MEASUREMENT PROTOCOL: BCAT2 cell inhibition using engineered A549 cells (MUT KO, BCAT1 KO; 13C6-KMV formation by LC-MS/MS)
- Type: cell-based
- Design: expressed endogenous BCAT2; endogenous in cells; host or cells: A549 cells, MUT knockout and BCAT1 knockout
The entries below come with measured IC50 values attached.
MEASURE NAME: IC50

COMPOUND	MEASURE NAME	VALUE OBSERVED
O=C1c2cc(Cl)ccc2CN1[C@H]1CCC[C@@H](n2c(-c3ccccc3OCCO)nc3cnc(-c4nc[nH]n4)cc32)C1 [Example 172]	IC50	< 100 nM
O=C1c2cc(F)ccc2CN1[C@H]1CCC[C@@H](n2c(-c3ccccc3F)nc3cnc(-n4nccn4)cc32)[C@@H]1O [Example 185]	IC50	< 100 nM
O=C(N[C@H]1CCC[C@@H](n2c(-c3c(O)cccc3F)nc3ccc(-c4nc[nH]n4)cc32)C1)c1cc(Cl)ccn1 [Example 227]	IC50	100 to 500 nM
O=C(N[C@H]1CCC[C@@H](n2c(-c3ccccc3F)nc3cnc(-c4nc[nH]n4)cc32)C1)c1cc(Cl)ccc1OC(F)(F)F [Example 4]	IC50	500 to 1000 nM
O=C(N[C@H]1CCC[C@@H](n2c(-c3ccccc3OCCO)nc3cnc(-c4nc[nH]n4)cc32)C1)c1cc(F)ccc1F [Example 85]	IC50	100 to 500 nM
O=C(N[C@H]1CCC[C@@H](n2c(-c3ccccc3F)nc3cnc(-c4nc[nH]n4)cc32)C1)c1cc(Cl)ccc1OCCN1CCCC1 [Example 35]	IC50	500 to 1000 nM
